Reference for the values: patent US11753407B2

measured property: melting point

Answered cases to consult:
Cc1cn2nc(-c3cc(=O)n4cc(N5CCN(CCO)CC5)ccc4n3)cc2c(C2CC2)n1: 239 to 241 °C
CCc1nc(C)cn2nc(-c3cc(=O)n4cc(N5CCCN(C)CC5)ccc4n3)cc12: 175 to 180 °C
COc1ccc(-c2cc(=O)n3cc(N4CCCN(C)CC4)ccc3n2)cc1F: 176 to 178 °C
CCc1nc(C)cn2nc(-c3cc(=O)n4cc(N5CCN(C6COC6)CC5)ccc4n3)cc12: 205 to 208 °C
CCc1nc(C)cn2nc(-c3cc(=O)n4cc(N5CCC(C)(N)CC5)ccc4n3)cc12: 216 to 218 °C

Reported melting point for "Cc1cn2cc(-c3cc(=O)n4cc(C5CCN(CCO)CC5)ccc4n3)ccc2n1" : what is it?
200 to 202 °C

Reported melting point for "Cc1nc2ccc(-c3cc(=O)n4cc(N5CCN[C@@H](C)C5)ccc4n3)cc2o1" : what is it?
191 to 193 °C

Reported melting point for "Cc1cn2cc(-c3cc(=O)n4cc(N5CCN(C(C)C)[C@H](C)C5)ccc4n3)cc2c(C)n1" : what is it?
249 to 251 °C

Reported melting point for "Cc1cn2cc(-c3cc(=O)n4cc(N5CCN6CCC[C@@H]6C5)ccc4n3)cc(Cl)c2n1" : what is it?
274 to 280 °C

Reported melting point for "Cc1cn2cc(-c3cc(=O)n4cc(C5CCN(C6CCC6)CC5)ncc4n3)ccc2n1" : what is it?
249 to 251 °C

Reported melting point for "Cc1nc2ccc(-c3cc(=O)n4cc(N5CCCNCC5)ccc4n3)cc2o1" : what is it?
134 to 137 °C

Reported melting point for "COc1cc(F)cc(-c2cc(=O)n3cc(N4CCN[C@@H](C)C4)ccc3n2)c1" : what is it?
154 to 156 °C

Reported melting point for "CCc1nc(C)cn2nc(-c3cc(=O)n4cc(N5CCN(CCF)CC5)ccc4n3)cc12" : what is it?
245 to 247 °C

###

Listing: melting point of selected compounds

COc1ccc(-c2cc(=O)n3cc(C4=CCN(C5COC5)CC4)ccc3n2)cc1OC [Compound 364]: 178 to 180 °C
Cc1nc2cc(-c3cc(=O)n4cc(N5CCCN(C)CC5)ccc4n3)ccc2s1 [Compound 177]: 165 to 170 °C
COc1ccc(-c2cc(=O)n3cc(C4=CCNCC4)ccc3c2)cc1OC [Cpd 245]: 174 to 176 °C
Cc1cn2cc(-c3cc(=O)n4cc(C5CCNCC5)ccc4n3)cc(C)c2n1 [Compound 607]: 282 to 284 °C
Cc1cn2nc(-c3cc(=O)n4cc(N5CCN[C@@H](C)C5)ccc4n3)cc2cn1 [Compound 441]: 235 to 240 °C

The record that follows has no melting point shown yet.
Reported melting point for COc1ccc(-c2cc(=O)n3cc(N4CCN(C)CC4)ccc3n2)cc1 [Compound 2] : what is it?
178 to 182 °C

###

Listing: melting point of selected compounds

COc1ccc(-c2cc(=O)n3cc(C4=CCN(C)CC4)cc(C)c3n2)cc1F [Compound 315]: 184 to 190 °C

Reported melting point for Cc1cn2cc(-c3ccc4nc(C5=CCN(C)CC5)cc(=O)n4c3)cc(F)c2n1 [Compound 411] : what is it?
218 to 222 °C

Reported melting point for CCCc1nc(C)cn2nc(-c3cc(=O)n4cc(N5C[C@H]6CNC[C@H]6C5)ccc4n3)cc12 [Compound 761] : what is it?
212 to 214 °C

Reported melting point for CCN1CC=C(c2ccc3nc(-c4ccc5nc(C)sc5c4)cc(=O)n3c2)CC1 [Compound 396] : what is it?
128 to 130 °C

Reported melting point for Cc1nc2ccc(-c3cc(=O)n4cc(OC5CCNCC5)ccc4n3)cc2s1 [Compound 286] : what is it?
218 to 220 °C

Reported melting point for O=c1cc(-c2ccc3nc(C(F)(F)F)cn3c2)nc2ccc(N3CCNCC3)cn12 [Compound 123] : what is it?
250 to 255 °C

Reported melting point for COc1ccc(-c2ccc3nc(C4CCNCC4)cc(=O)n3c2)cc1F [Compound 316] : what is it?
278 to 281 °C

Reported melting point for CCN1CCN(c2cc(C)c3nc(-c4cc5c(C)nc(C)cn5n4)cc(=O)n3c2)C[C@H]1C [Compound 511] : what is it?
240 to 245 °C

Reported melting point for Cc1cn2nc(-c3cc(=O)n4cc(N5CC(N6CCCCC6)C5)ccc4n3)cc2c(C)n1 [Compound 765] : what is it?
220 to 223 °C

Reported melting point for COc1ccc(-c2cc(=O)n3cc(N4CCC(CN5CCCC5)CC4)ccc3n2)cc1OC [Compound 574] : what is it?
194 to 196 °C
